- Tested on: K-562 leukemia
- experimental-protocol: NCI-60 one-dose screen, 48 h (100 = growth as untreated, 0 = no growth, -100 = all killed)
- test-conditions: 10 µM
The panel holds about 83,000 compounds, 20% with a hit somewhere; the sample as a whole holds those more often.
measurement-type: growth (%)
I only need the number, in %, no unit after it.

molecule="C=CC(O)CCC (stereo not drawn)" subject_of_test="K-562 leukemia" measurement_type=growth observed_result=104
molecule="COc1cccc(/C=N/NC(=S)NC2CC3CCC2C3)c1O (stereo not drawn)" subject_of_test="K-562 leukemia" measurement_type=growth observed_result=39.3
molecule=O=S(=O)(O)c1cc(O)c2c(N=Cc3ccccc3O)c(S(=O)(=O)O)ccc2c1 subject_of_test="K-562 leukemia" measurement_type=growth observed_result=96.7
molecule=CC(C)OC(=O)c1cc(NC(=S)OC(C)C)ccc1Cl subject_of_test="K-562 leukemia" measurement_type=growth observed_result=73.7
molecule=O=C1C=C(Nc2ccc([N+](=O)[O-])cc2)c2ccccc2C1=O subject_of_test="K-562 leukemia" measurement_type=growth observed_result=13.2
molecule=O=C(CS)Nc1ccc2ccccc2c1 subject_of_test="K-562 leukemia" measurement_type=growth observed_result=96.8
molecule=C=C1CC/C=C(\C)C(=O)C[C@@H]2[C@@H]1CC2(C)C subject_of_test="K-562 leukemia" measurement_type=growth observed_result=102
molecule=COc1cc2nn(-c3ccccc3N)nc2cc1OC subject_of_test="K-562 leukemia" measurement_type=growth observed_result=99.3
molecule=COc1cc2nc3cc([N+](=O)[O-])ccc3c(Cl)c2cc1OC subject_of_test="K-562 leukemia" measurement_type=growth observed_result=98.8
molecule=O=C(O)c1ccc(S(=O)(=O)O)cc1 subject_of_test="K-562 leukemia" measurement_type=growth observed_result=114

-- ask Checklist item: growth tested on K-562 leukemia, entry `CC1(C)N=C(N)N=C(N)N1c1cccc(Br)c1` , value?
-- reply 23.2

-- ask Checklist item: growth tested on K-562 leukemia, entry `Cc1cc(N)c(S(=O)(=O)O)c(N)c1` , value?
-- reply 125

-- ask Checklist item: growth tested on K-562 leukemia, entry `Nc1ccc(N=Nc2ccc(O)cc2)c(N)n1` , value?
-- reply 39.2
